Reported pIC50 values for a set of compounds
Molecular target: KRAS G12C (Homo sapiens, UniProt P01116+P62937, G12C)
Sequence (P01116 1-169 isoform P01116-2 G12C): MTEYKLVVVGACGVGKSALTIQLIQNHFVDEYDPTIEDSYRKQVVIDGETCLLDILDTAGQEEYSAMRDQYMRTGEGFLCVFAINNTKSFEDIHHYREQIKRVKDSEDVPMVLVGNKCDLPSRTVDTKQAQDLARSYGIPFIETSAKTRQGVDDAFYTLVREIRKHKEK
Sequence (P62937 whole entry): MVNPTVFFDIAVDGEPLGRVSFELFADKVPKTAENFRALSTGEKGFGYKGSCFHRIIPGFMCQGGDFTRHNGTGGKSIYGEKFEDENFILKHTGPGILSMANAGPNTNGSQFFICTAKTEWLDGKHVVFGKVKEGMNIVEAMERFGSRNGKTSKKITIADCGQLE
Assay: Disruption of BRAF RBD interaction with Ras (FRET / MOA assay, with Cyclophilin A)
Format: biochemical
Details: KRAS G12C; read-out: KRAS G12C FRET data IC50
pIC50: −log10 of the molar value.

Reference set (3 entries):
[[record]]
compound = "C=CC(=O)N1CC[C@H](C(=O)N(C)[C@H](C(=O)N[C@H]2Cc3cc(O)cc(c3)-c3ccc4c(c3)c(c(-c3ccncc3)n4C(C)(C)C#N)CC(C)(C)COC(=O)[C@@H]3CCCN(N3)C2=O)C(C)C)C1 [Example A086]"
measured_attribute = "pIC50"
endpoint_result = "7.00 to 8.00"

[[record]]
compound = "C=CC(=O)N1CC[C@H](C(=O)N(C)[C@H](C(=O)N[C@H]2Cc3cc(O)cc(c3)-c3ccc4c(c3)c(c(-c3cccnc3COC)n4CC)CC(C)(C)COC(=O)[C@@H]3CCCN(N3)C2=O)C2CCCC2)C1 [Example A055]"
measured_attribute = "pIC50"
endpoint_result = "7.00 to 8.00"

[[record]]
compound = "CCn1c(-c2cccnc2COC)c2c3cc(ccc31)-c1cc(O)cc(c1)C[C@H](NC(=O)[C@H](C(C)C)N(C)C(=O)C1CN(C(=O)C#CCN(C)C)C1)C(=O)N1CCC[C@H](N1)C(=O)OCC(C)(C)C2 [Example A097]"
measured_attribute = "pIC50"
endpoint_result = "> 8.00"


State its pIC50: C=CC(=O)N1CC[C@H](C(=O)N(C)[C@H](C(=O)N[C@H]2Cc3cccc(c3)-c3ccc4c(c3)c(c(-c3cc(CN(C)C)cnc3[C@H](C)OC)n4CC)CC(C)(C)COC(=O)[C@@H]3CCCN(N3)C2=O)C(C)C)C1 [Example A523]
5.00 to 6.00

Identify measured pIC50 associated with CCn1c(-c2cccnc2[C@H](C)OC)c2c3cc(ccc31)-c1csc(n1)C[C@H](NC(=O)[C@H](C(C)C)N(C)C(=O)N1CC(N(C)C(=O)C#CC(C)(C)N3CCC3)C1)C(=O)N1CCC[C@H](N1)C(=O)OCC(C)(C)C2 [Example A379]
> 8.00

---

Molecular target: NRAS G12C (Homo sapiens, UniProt P01111+P62937, G12C)
Sequence (P01111 whole entry G12C, one chain of several): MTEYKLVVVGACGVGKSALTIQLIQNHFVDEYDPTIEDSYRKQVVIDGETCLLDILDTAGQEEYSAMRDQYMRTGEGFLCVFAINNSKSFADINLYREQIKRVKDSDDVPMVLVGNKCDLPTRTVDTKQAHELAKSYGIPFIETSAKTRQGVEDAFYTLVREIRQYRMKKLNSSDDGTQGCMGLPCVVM
Assay: Disruption of BRAF RBD interaction with Ras (FRET / MOA assay, with Cyclophilin A)
Format: biochemical
Conditions: NRAS G12C FRET data IC50, NRAS G12C
Source text: This protocol may also be executed substituting other Ras proteins or nucleotides. The purpose of this biochemical assay was to measure the ability of test compounds to facilitate ternary complex formation between a nucleotide-loaded K-Ras isoform and Cyclophilin A; the resulting ternary complex disrupts binding to a BRAF^RBD construct, inhibiting K-Ras signaling through a RAF effector. Data is reported as IC50 values. […]
measured-attribute: IC50

[[record]]
compound = "CCn1c(-c2cccnc2[C@H](C)OC)c2c3cc(ccc31)-c1cc(O)cc(c1)C[C@H](NC(=O)[C@H](C(C)C)N(C)C(=O)[C@H]1C[C@@H](O)C1)C(=O)N1CCC[C@H](N1)C(=O)OCC(C)(C)C2 (atropisomer, axis not shown)"
target_or_test_system = "NRAS G12C (Homo sapiens, UniProt P01111+P62937, G12C)"
measured_attribute = "IC50"
endpoint_result = "10 to 100 nM"

[[record]]
compound = "C=CC(=O)N1CC[C@H](C(=O)N(C)[C@H](C(=O)N[C@H]2C[C@H]3CN(CCO3)c3ccc4c(c3)c(c(-c3cccnc3[C@H](C)OC)n4CC)CC(C)(C)COC(=O)[C@@H]3CCCN(N3)C2=O)C(C)C)C1 (racemic)"
target_or_test_system = "NRAS G12C (Homo sapiens, UniProt P01111+P62937, G12C)"
measured_attribute = "IC50"
endpoint_result = "100 to 1000 nM"

[[record]]
compound = "CCn1c(-c2cnccc2COC)c2c3cc(ccc31)-c1cc(O)cc(c1)C[C@H](NC(=O)[C@H](C(C)C)N(C)C(=O)[C@H]1CCN(S(=O)(=O)N3CC(O)C3)C1)C(=O)N1CCC[C@H](N1)C(=O)OCC(C)(C)C2"
target_or_test_system = "NRAS G12C (Homo sapiens, UniProt P01111+P62937, G12C)"
measured_attribute = "IC50"
endpoint_result = "100 to 1000 nM"

[[record]]
compound = "CCn1c(-c2cnccc2COC)c2c3cc(ccc31)-c1cc(O)cc(c1)C[C@H](NC(=O)[C@H](C(C)C)N(C)C(=O)CO)C(=O)N1CCC[C@H](N1)C(=O)OCC(C)(C)C2"
target_or_test_system = "NRAS G12C (Homo sapiens, UniProt P01111+P62937, G12C)"
measured_attribute = "IC50"
endpoint_result = "100 to 1000 nM"

[[record]]
compound = "CCn1c(-c2cccnc2[C@H](C)OC)c2c3cc(ccc31)-c1cc(O)cc(c1)C[C@H](NC(=O)[C@H](C(C)C)N(C)C(=O)C1CCN3CCOCC13)C(=O)N1CCC[C@H](N1)C(=O)OCC(C)(C)C2 (some centres unmarked)"
target_or_test_system = "NRAS G12C (Homo sapiens, UniProt P01111+P62937, G12C)"
measured_attribute = "IC50"
endpoint_result = "100 to 1000 nM"

[[record]]
compound = "CCn1c(-c2cccnc2[C@H](C)OC)c2c3cc(ccc31)-c1csc(n1)C[C@H](NC(=O)[C@H](C(C)C)N(C)C(=O)N1CCC[C@H](CN(C)C)C1)C(=O)N1CCC[C@H](N1)C(=O)OCC(C)(C)C2 (atropisomer, axis not shown)"
target_or_test_system = "NRAS G12C (Homo sapiens, UniProt P01111+P62937, G12C)"
measured_attribute = "IC50"
endpoint_result = "10 to 100 nM"

[[record]]
compound = "CCn1c(-c2cccnc2[C@H](C)OC)c2c3cc(ccc31)-c1csc(n1)C[C@H](NC(=O)N1CCC[C@@H]1COC)C(=O)N1CCC[C@H](N1)C(=O)OCC(C)(C)C2 (atropisomer, axis not shown)"
target_or_test_system = "NRAS G12C (Homo sapiens, UniProt P01111+P62937, G12C)"
measured_attribute = "IC50"
endpoint_result = "10 to 100 nM"

[[record]]
compound = "CCn1c(-c2cnccc2COC)c2c3cc(ccc31)-c1cc(O)cc(c1)C[C@H](NC(=O)[C@H](C(C)C)N(C)C(=O)[C@H]1CCN(C)C1)C(=O)N1CCC[C@H](N1)C(=O)OCC(C)(C)C2"
target_or_test_system = "NRAS G12C (Homo sapiens, UniProt P01111+P62937, G12C)"
measured_attribute = "IC50"
endpoint_result = "100 to 1000 nM"


Proceed to the following item.
Quickly give me recorded IC50 for CCn1c(-c2cnccc2COC)c2c3cc(ccc31)-c1cc(O)cc(c1)C[C@H](NC(=O)[C@H](C(C)C)N(C)C(=O)[C@H]1CCN(C(=O)OC)C1)C(=O)N1CCC[C@H](N1)C(=O)OCC(C)(C)C2
10 to 100 nM

---

Entries and their pIC50 values follow.
Biological target: KRAS G12V (Homo sapiens, UniProt P01116+P62937, G12V)
Sequence (P01116 1-169 isoform P01116-2 G12V limits assumed): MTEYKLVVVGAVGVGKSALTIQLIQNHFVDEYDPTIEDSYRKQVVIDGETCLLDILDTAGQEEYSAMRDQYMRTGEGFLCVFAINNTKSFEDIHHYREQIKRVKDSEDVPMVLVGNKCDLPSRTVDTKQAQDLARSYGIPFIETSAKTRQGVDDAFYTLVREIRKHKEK
Sequence (P62937 whole entry): as the sequence (P62937 whole entry) above
Test: Ras-Raf disruption / FRET / MOA assay (BRAF RBD)
Type: biochemical
Settings: Ras-Raf disruption, with Cyclophilin A; read-out: KRAS G12V FRET data IC50
pIC50: −log10 of the molar value.

Solved entries (count: 3):
[[record]]
compound = "CCn1c(-c2cccnc2[C@H](C)OC)c2c3cc(ccc31)-c1cc(O)cc(c1)C[C@H](NC(=O)[C@H](C(C)C)N(C)C(=O)N1CCN(C(=O)[C@@H]3CN3)C(=O)C1)C(=O)N1CCC[C@H](N1)C(=O)OCC(C)(C)C2 [Example 197]"
endpoint_result = "7.00 to 8.00"

[[record]]
compound = "CCn1c(-c2cccnc2[C@H](C)OC)c2c3cc(ccc31)-c1cc(O)cc(c1)C[C@H](NC(=O)[C@H](C(C)C)N(C)C(=O)c1ccc([C@H]3CN3)cc1)C(=O)N1CCC[C@H](N1)C(=O)OCC(C)(C)C2"
endpoint_result = "6.00 to 7.00"

[[record]]
compound = "CCn1c(-c2cccnc2[C@H](C)OC)c2c3cc(ccc31)-c1cc(O)cc(c1)C[C@H](NC(=O)[C@H](C(C)C)N(C)C(=O)[C@@]1(F)CCN(C(=O)[C@@H]3CN3)C1)C(=O)N1CCC[C@H](N1)C(=O)OCC(C)(C)C2 (atropisomer, axis not shown)"
endpoint_result = "6.00 to 7.00"


Let's switch to this compound now.
Fill in reported pIC50 for this entry: CCn1c(-c2cccnc2[C@H](C)OC)c2c3cc(ccc31)-c1cc(O)cc(c1)C[C@H](NC(=O)[C@H](C(C)C)N(C)C(=O)N1CCN(C(=O)[C@H]3CN3)CC1)C(=O)N1CCC[C@H](N1)C(=O)OCC(C)(C)C2
7.00 to 8.00
